- System: HEL cell cultures
- condition-info: human
test-readout: Cytotoxicity MCC

Query: Hello, please tell me recorded Cytotoxicity MCC for this one: CC(C)(C)C(=O)OCOP(=O)(C/C=C/COc1cc(N)nc(N)n1)OCOC(=O)C(C)(C)C
Response: >100 µM

Query: Item CC(C)OC(=O)OCOP(=O)(C/C=C/COc1cc(N)nc(N)n1)OCOC(=O)OC(C)C : provide Cytotoxicity MCC
Response: >100 µM

Query: Find the measured Cytotoxicity MCC of CC(=O)OC/C(=C\CP(=O)(OCOC(=O)OC(C)C)OCOC(=O)OC(C)C)COc1cc(N)nc(N)n1 and report it.
Response: >100 µM

Query: Please report Cytotoxicity MCC for the following compound: Nc1nc(O)c2ncn(COC(CO)CO)c2n1 [Ganciclovir, reference compound]
Response: >100 µM

Query: For the compound CC(=O)OCC(=CCP(=O)(OCOC(=O)C(C)(C)C)OCOC(=O)C(C)(C)C)COc1cc(N)nc(N)n1 (mixture of isomers) , report Cytotoxicity MCC.
Response: 100 µM

Query: Look up Cytotoxicity MCC of CC(C)(C)C(=O)OCOP(=O)(CC/C=C/COc1cc(N)nc(N)n1)OCOC(=O)C(C)(C)C and report it.
Response: 100 µM

Query: Please look at this compound and report its Cytotoxicity MCC: C/C(=C\CP(=O)(OCOC(=O)C(C)(C)C)OCOC(=O)C(C)(C)C)COc1cc(N)nc(N)n1
Response: >100 µM

Query: Please supply the value of reported Cytotoxicity MCC for the item CC(C)(C)C(=O)OCOP(=O)(/C=C/COc1cc(N)nc(N)n1)OCOC(=O)C(C)(C)C
Response: >100 µM

Query: Dear colleague, please send me the reported Cytotoxicity MCC for Nc1ccn(C[C@@H](CO)OCP(=O)(O)O)c(=O)n1 [Cidofovir, reference compound] when you can.
Response: >100 µM

Query: Query Cytotoxicity MCC for CC(C)(C)C(=O)OCOP(=O)(CCCCOc1cc(N)nc(N)n1)OCOC(=O)C(C)(C)C
Response: >100 µM

Query: Supply Cytotoxicity MCC value. Item: O=c1[nH]c(=O)n([C@H]2C[C@H](O)[C@@H](CO)O2)cc1/C=C/Br [Brivudine, reference compound]
Response: >100 µM

---

- Tested on: Vaccinia Virus
- measurement-protocol: microbe, parasite or virus in culture
- Type: cell-based
- condition-info: read-out: EC50 Vaccinia Virus
test-readout: EC50

Query: Read the entry CCCCCCCCCCCCCCCCOCCCOP(=O)(CC=C(COC(C)=O)COc1cc(Cl)nc(N)n1)OCOC(=O)OC(C)C (mixture of isomers) [Compound (8)] and write its reported EC50.
Response: > 100 µM

Query: Supply recorded EC50 for CCCCCCCCCCCCCCCCOCCCOP(=O)(C/C=C/COc1cc(N)nc(N)n1)OCOC(=O)OC(C)C (centres unmarked) [Compound (2)] here.
Response: > 100 µM

---

- Test system: HSV-2 (G)
- measurement-protocol: microbe, parasite or virus in culture
- Type: cell-based, herpes simplex virus 2
- condition-info: Human alphaherpesvirus 2, HEL, read-out: EC50 HSV-2 (G)
Provide the recorded pEC50 for the entries that follow.
The read-out pEC50 is expressed as -log10 of concentration in moles per litre.

Query: Annotate the compound CC(C)OC(=O)OCOP(=O)(C/C=C/COc1cc(N)nc(N)n1)OCOC(=O)OC(C)C [Compound (3)] with its measured pEC50.
Response: 5.73

Query: Look up and report measured pEC50 for this entry: CC(C)(C)C(=O)OCOP(=O)(C/C=C/COc1cc(N)nc(N)n1)OCOC(=O)C(C)(C)C [Compound (1)]
Response: 4.87

Query: State, in one line, measured pEC50 of CC(C)(C)C(=O)OCOP(=O)(CCCCOc1cc(N)nc(N)n1)OCOC(=O)C(C)(C)C [Compound (12)]
Response: 4.40

Query: // Input: CC(=O)OCC(=CCP(=O)(OCOC(=O)C(C)(C)C)OCOC(=O)C(C)(C)C)COc1cc(N)nc(N)n1 (mixture of isomers) [Compound (4)] . Output its pEC50 only.
Response: 5.96

---

- System: HSV-2 (G)
- measurement-protocol: microbe, parasite or virus in culture
- Type: cell-based, herpes simplex virus 2
- condition-info: read-out: EC50 HSV-2 (G)
pEC50: −log10 of the molar value.
Assign pEC50 to each entry below.

Query: // fetch pEC50; item: CCCCCCCCCCCCCCCCOCCCOP(=O)(CC=C(COC(C)=O)COc1cc(Cl)nc(N)n1)OCOC(=O)OC(C)C (mixture of isomers) ; system: HSV-2 (G)
Response: < 4.00

Query: Under HSV-2 (G): report pEC50 of CCCCCCCCCCCCCCCCOCCCOP(=O)(C/C=C/COc1cc(N)nc(N)n1)OCOC(=O)OC(C)C (centres unmarked) .
Response: < 4.00

---

- Test system: HEL cells
- condition-info: read-out: Cytotoxicity CC50; concentration reducing cell growth by 50%; HCMV/VZV table
test-readout: CC50
Express your answer as a number followed by its unit.

Query: Return reported CC50. Input molecule: CCCCCCCCCCCCCCCCOCCCOP(=O)(C/C=C/COc1cc(N)nc(N)n1)OCOC(=O)OC(C)C (centres unmarked)
Response: 14.5 µM

Query: Give the measured CC50 for CCCCCCCCCCCCCCCCOCCCOP(=O)(CC=C(COC(C)=O)COc1cc(Cl)nc(N)n1)OCOC(=O)OC(C)C (mixture of isomers)
Response: 5.01 µM

---

- Test system: varicella-zoster virus (VZV) TK− (07/1)
- measurement-protocol: microbe, parasite or virus in culture
- Type: cell-based
- condition-info: Human alphaherpesvirus 3, HEL, read-out: EC50 VZV TK− (07/1)
Give measured pEC50 for each item. Keep answers brief.
# pEC50 is unitless: minus log10 of the molar concentration; print number only

Query: Indicate the recorded pEC50 value for this compound: C/C(=C\CP(=O)(OCOC(=O)C(C)(C)C)OCOC(=O)C(C)(C)C)COc1cc(N)nc(N)n1
Response: 4.31

Query: State its pEC50 for this compound: CC(C)OC(=O)OCOP(=O)(C/C=C/COc1cc(N)nc(N)n1)OCOC(=O)OC(C)C
Response: 5.90

Query: Name the recorded pEC50 of the item CC(C)(C)C(=O)OCOP(=O)(C/C=C/COc1cc(N)nc(N)n1)OCOC(=O)C(C)(C)C in your answer.
Response: 5.63

Query: Supply measured pEC50 of CC(C)(C)C(=O)OCOP(=O)(CCCCOc1cc(N)nc(N)n1)OCOC(=O)C(C)(C)C in your reply.
Response: 4.96

Query: Indicate the recorded pEC50 value for this compound: CC(=O)OCC(=CCP(=O)(OCOC(=O)C(C)(C)C)OCOC(=O)C(C)(C)C)COc1cc(N)nc(N)n1 (mixture of isomers)
Response: 6.92

Query: Query pEC50 for O=c1[nH]c(=O)n([C@H]2C[C@H](O)[C@@H](CO)O2)cc1/C=C/Br [Brivudine, reference compound]
Response: 3.93

Query: Please report the measured pEC50 for CC(C)(C)C(=O)OCOP(=O)(CC/C=C/COc1cc(N)nc(N)n1)OCOC(=O)C(C)(C)C
Response: 4.61

Query: Identify pEC50 associated with the compound CC(=O)OC/C(=C\CP(=O)(OCOC(=O)OC(C)C)OCOC(=O)OC(C)C)COc1cc(N)nc(N)n1
Response: 6.66

---

- System: human cytomegalovirus (HCMV) (AD-169)
- measurement-protocol: microbe, parasite or virus in culture
- Format: cell-based
- condition-info: Human betaherpesvirus 5, AD169, HEL, read-out: EC50 HCMV (AD-169)
test-readout: pEC50
pEC50 is defined as minus the log10 of a concentration measured in mol/L.

Query: Return pEC50 for the following molecule: Nc1ccn(C[C@@H](CO)OCP(=O)(O)O)c(=O)n1 [Cidofovir, reference compound]
Response: 5.92

Query: In one line, give reported pEC50 of the entry CC(C)OC(=O)OCOP(=O)(C/C=C/COc1cc(N)nc(N)n1)OCOC(=O)OC(C)C .
Response: 4.35

Query: Please report pEC50 for the following molecule: Nc1nc2c(ncn2COCCO)c(=O)[nH]1 [Acyclovir, reference compound]
Response: 6.40

Query: Determine its reported pEC50: CC(C)(C)C(=O)OCOP(=O)(C/C=C/COc1cc(N)nc(N)n1)OCOC(=O)C(C)(C)C
Response: 4.35

Query: # return recorded pEC50 for input O=c1[nH]c(=O)n([C@H]2C[C@H](O)[C@@H](CO)O2)cc1/C=C/Br [Brivudine, reference compound]
Response: 7.10

Query: Give the measured pEC50 for CC(C)(C)C(=O)OCOP(=O)(CCCCOc1cc(N)nc(N)n1)OCOC(=O)C(C)(C)C
Response: 4.35

Query: State its pEC50: CC(=O)OCC(=CCP(=O)(OCOC(=O)C(C)(C)C)OCOC(=O)C(C)(C)C)COc1cc(N)nc(N)n1 (mixture of isomers)
Response: 5.07
